B1: MMP1 (parent)
chain: FHGTRQYKFDPKTKRILTLQKANS

variants of: B1; test: protein stability index of a GFP-peptide fusion (GPS, HEK-293T) (PSI 1-6); higher = more stable; details: c terminus: a fixed tail appended;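 further: lentivirally expressed fusions sorted by FACS into six bins by GFP to DsRed ratio, PSI derived from sequencing read proportions per bin multiplied by bin number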
Quick rule: protein stability index of at least 2 means met, below that means not met.

Record excerpt, results attached:
query.sequence	class.name
FHGTRQYKFDPKTKRILTMQKANS [L19M]	not met
FHGTRQYKFDPKTKRILTNQKANS [L19N]	not met
FHGTFQYKFDPKTKRILTLQKANS [R5F]	not met
FHGTRQAKFDPKTKRILTLQKANS [Y7A]	met
FHGTRQYDFDPKTKRILTLQKANS [K8D]	met
FHGTRQYKFDPKTKRILTLQKPNS [A22P]	met

**Q:** Test whether the variant FHGTRQYKFDPKTKHILTLQKANS [R15H] records protein stability index of 2 or higher.
**A:** not met

**Q:** Test whether the variant FHGTRQHKFDPKTKRILTLQKANS [Y7H] records protein stability index of 2 or higher.
**A:** met

**Q:** Test whether the variant FHGTRQYKFDPKTARILTLQKANS [K14A] records protein stability index of 2 or higher.
**A:** met

**Q:** Test whether the variant FHGTRQYKFDPKTKRILTLQKSNS [A22S] records protein stability index of 2 or higher.
**A:** met

**Q:** Test whether the variant FHGVRQYKFDPKTKRILTLQKANS [T4V] records protein stability index of 2 or higher.
**A:** not met

**Q:** Test whether the variant FHGTRQYKFDPKTKRILTLQEANS [K21E] records protein stability index of 2 or higher.
**A:** met
